# IC50 annotations
Molecular target: Human Calpain 2/NS1 (Homo sapiens)
Sequence (P17655 1-700): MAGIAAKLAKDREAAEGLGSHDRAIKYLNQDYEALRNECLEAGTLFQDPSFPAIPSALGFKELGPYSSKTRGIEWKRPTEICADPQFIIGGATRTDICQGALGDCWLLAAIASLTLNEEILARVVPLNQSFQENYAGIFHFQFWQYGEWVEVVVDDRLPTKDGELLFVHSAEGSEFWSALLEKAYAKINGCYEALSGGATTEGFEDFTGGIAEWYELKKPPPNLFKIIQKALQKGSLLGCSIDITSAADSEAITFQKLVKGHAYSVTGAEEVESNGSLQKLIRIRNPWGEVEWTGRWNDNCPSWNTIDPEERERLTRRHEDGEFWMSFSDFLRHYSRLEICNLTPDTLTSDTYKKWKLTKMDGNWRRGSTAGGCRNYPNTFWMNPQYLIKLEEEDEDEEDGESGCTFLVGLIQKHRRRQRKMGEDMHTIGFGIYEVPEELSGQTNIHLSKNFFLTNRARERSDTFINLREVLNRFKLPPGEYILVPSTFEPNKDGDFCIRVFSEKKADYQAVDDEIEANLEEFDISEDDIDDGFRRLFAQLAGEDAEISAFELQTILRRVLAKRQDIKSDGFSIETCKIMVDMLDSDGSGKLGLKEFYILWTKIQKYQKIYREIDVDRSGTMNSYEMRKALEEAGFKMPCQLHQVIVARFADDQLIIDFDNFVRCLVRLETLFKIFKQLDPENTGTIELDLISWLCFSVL
Sequence (P04632 1-268 partner): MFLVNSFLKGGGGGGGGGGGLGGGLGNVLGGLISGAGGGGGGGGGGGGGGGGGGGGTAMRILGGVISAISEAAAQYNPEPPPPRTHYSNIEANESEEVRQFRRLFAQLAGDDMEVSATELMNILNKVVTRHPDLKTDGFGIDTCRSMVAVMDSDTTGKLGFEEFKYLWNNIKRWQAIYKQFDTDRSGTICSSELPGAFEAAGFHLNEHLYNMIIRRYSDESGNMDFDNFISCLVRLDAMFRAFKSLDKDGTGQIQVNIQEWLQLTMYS
Assay: Calpain inhibition continuous fluorescence (FRET) assay, Human Calpain 2/NS1
Format: biochemical

>  <MOLECULAR STRING>
Cc1cc(C(=O)N[C@@H](Cc2ccccc2)C(=O)C(N)=O)n(-c2cccc(CNC(=O)Oc3ccccc3)c2)n1

>  <IC50>
< 3 µM

$$$$
>  <MOLECULAR STRING>
Cc1cc(C(=O)N[C@@H](Cc2ccccc2)C(=O)C(N)=O)n(-c2ccc(CNC(=O)Oc3ccccc3)cc2)n1

>  <IC50>
< 3 µM

$$$$

* * *

pIC50 values by entry
Target: Human Calpain 9/NS1 (Homo sapiens)
Sequence (O14815 1-690): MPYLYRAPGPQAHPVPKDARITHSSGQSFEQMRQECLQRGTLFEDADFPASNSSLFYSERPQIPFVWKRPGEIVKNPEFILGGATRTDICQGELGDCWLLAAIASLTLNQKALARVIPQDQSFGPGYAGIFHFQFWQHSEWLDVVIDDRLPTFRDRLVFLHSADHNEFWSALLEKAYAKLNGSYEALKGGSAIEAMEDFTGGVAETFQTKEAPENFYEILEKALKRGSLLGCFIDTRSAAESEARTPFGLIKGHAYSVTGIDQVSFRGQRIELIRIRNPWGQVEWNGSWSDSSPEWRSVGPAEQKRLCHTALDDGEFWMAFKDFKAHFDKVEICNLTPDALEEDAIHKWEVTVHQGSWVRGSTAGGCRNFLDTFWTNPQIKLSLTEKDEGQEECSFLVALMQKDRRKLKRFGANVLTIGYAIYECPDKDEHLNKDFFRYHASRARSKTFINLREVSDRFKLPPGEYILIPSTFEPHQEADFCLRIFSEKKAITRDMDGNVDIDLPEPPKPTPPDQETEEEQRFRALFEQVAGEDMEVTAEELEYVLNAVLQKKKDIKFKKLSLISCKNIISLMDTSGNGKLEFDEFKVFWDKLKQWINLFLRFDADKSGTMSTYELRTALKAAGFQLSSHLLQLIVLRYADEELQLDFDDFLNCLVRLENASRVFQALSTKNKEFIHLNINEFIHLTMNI
Sequence (P04632 1-268 partner): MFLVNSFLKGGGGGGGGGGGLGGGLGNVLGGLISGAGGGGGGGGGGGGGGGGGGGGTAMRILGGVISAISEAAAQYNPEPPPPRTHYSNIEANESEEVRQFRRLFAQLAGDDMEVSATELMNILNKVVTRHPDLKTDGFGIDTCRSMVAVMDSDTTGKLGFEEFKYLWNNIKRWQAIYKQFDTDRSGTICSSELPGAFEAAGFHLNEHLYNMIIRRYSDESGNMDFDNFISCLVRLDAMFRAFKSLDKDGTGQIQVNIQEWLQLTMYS
Test: Calpain inhibition continuous fluorescence (FRET) assay, Human Calpain 9/NS1
Format: biochemical
Settings: Column C; read-out: Human Calpain 9/NS1 IC50
pIC50: −log10 of the molar value.

>  <MOLECULAR STRING>
Cn1cc(C(=O)N[C@@H](Cc2ccccc2)C(=O)C(N)=O)c(-c2cccc(C(F)(F)F)c2)n1

>  <pIC50>
> 5.52

$$$$
>  <MOLECULAR STRING>
C=CCOc1ccc(C[C@@H](C=O)NC(=O)c2cc(C)nn2-c2ccccn2)cc1

>  <pIC50>
> 5.52

$$$$
>  <MOLECULAR STRING>
Cc1cc(C(=O)N[C@@H](Cc2ccccc2)C(=O)C(N)=O)n(-c2ccncc2)n1

>  <pIC50>
> 5.52

$$$$
>  <MOLECULAR STRING>
Cc1noc(-c2ccccc2)c1C(=O)N[C@@H](Cc1ccccc1)C(=O)C(=O)NCc1ccc(S(C)(=O)=O)cc1

>  <pIC50>
> 5.52

$$$$
>  <MOLECULAR STRING>
NC(=O)C(=O)[C@H](Cc1ccccc1)NC(=O)c1ocnc1-c1ccccc1

>  <pIC50>
> 5.52

$$$$
>  <MOLECULAR STRING>
Cc1cc(C(=O)N[C@@H](Cc2ccccc2)C(=O)C(N)=O)nn1-c1nc2ccccc2o1

>  <pIC50>
> 5.52

$$$$
>  <MOLECULAR STRING>
CC(=O)NCc1cccc(-n2nc(C)cc2C(=O)N[C@@H](Cc2ccccc2)C(=O)C(N)=O)c1

>  <pIC50>
> 5.52

$$$$
>  <MOLECULAR STRING>
Cc1cc(C(=O)N[C@@H](Cc2ccccc2)C(=O)C(N)=O)n(-c2ccc(CNC(=O)c3ccccc3)cc2)n1

>  <pIC50>
> 5.52

$$$$
